The values you see were collected from ChEMBL document CHEMBL4311942.

# Tested on: Escherichia coli
# experiment.description: Antibacterial activity against Escherichia coli UB1005 incubated for 18 to 24 hrs by broth microdilution method
# Format: functional
Where a SMILES comes first, the peptide text is derived from it.
observed.property: MIC
Number plus unit, in that order.

Request: # input compound: CC(C)C[C@H](NC(=O)[C@H](CCCNC(=N)N)NC(=O)[C@H](Cc1c[nH]c2ccccc12)NC(=O)[C@H](CCCNC(=N)N)NC(=O)[C@H](CC(C)C)NC(=O)[C@H](CCCNC(=N)N)NC(=O)[C@H](Cc1c[nH]c2ccccc12)NC(=O)[C@H](CCCNC(=N)N)NC(=O)[C@H](CC(C)C)NC(=O)[C@H](CCCNC(=N)N)NC(=O)[C@@H](N)Cc1c[nH]c2ccccc12)C(=O)N[C@@H](CCCNC(=N)N)C(N)=O (H-WRLRWRLRWRLR-NH2) ; wanted: its MIC
Result: 2 µM

Request: One more compound: CC(C)C[C@H](NC(=O)[C@H](CCCNC(=N)N)NC(=O)[C@H](Cc1c[nH]c2ccccc12)NC(=O)[C@H](CCCNC(=N)N)NC(=O)[C@@H](NC(=O)[C@H](CCCCN)NC(=O)[C@H](Cc1c[nH]c2ccccc12)NC(=O)[C@H](CCCNC(=N)N)NC(=O)[C@H](CC(C)C)NC(=O)[C@H](CCCNC(=N)N)NC(=O)[C@@H](N)Cc1c[nH]c2ccccc12)[C@@H](C)O)C(=O)N[C@@H](CCCCN)C(N)=O (H-WRLRWKTRWRLK-NH2)
Result: 2 µM

Request: Likewise for C[C@@H](O)[C@H](NC(=O)[C@H](CCCNC(=N)N)NC(=O)[C@H](Cc1c[nH]c2ccccc12)NC(=O)[C@H](CCCNC(=N)N)NC(=O)[C@@H](NC(=O)[C@H](CCCNC(=N)N)NC(=O)[C@H](Cc1c[nH]c2ccccc12)NC(=O)[C@H](CCCNC(=N)N)NC(=O)[C@@H](NC(=O)[C@H](CCCNC(=N)N)NC(=O)[C@@H](N)Cc1c[nH]c2ccccc12)[C@@H](C)O)[C@@H](C)O)C(=O)N[C@@H](CCCNC(=N)N)C(N)=O (H-WRTRWRTRWRTR-NH2) ?
Result: 4 µM

---

Kindly state selectivity ratio for each of the entries shown.
# experiment.description: Therapeutic index, ratio of MHC for human RBC to geometric mean of peptide MIC for Escherichia coli ATCC 25922
# Assay type: toxicity
# conditions: pooled result: one value given for 6 cell lines, strains, targets or settings, read-out: TI
Where a SMILES comes first, the peptide text is derived from it.
Give the figure only, with no unit attached.

Request: Requested read-out: selectivity ratio. Entry: CC(C)[C@H](NC(=O)[C@H](CCCNC(=N)N)NC(=O)[C@H](Cc1c[nH]c2ccccc12)NC(=O)[C@H](CCCNC(=N)N)NC(=O)[C@@H](NC(=O)[C@H](CCCCN)NC(=O)[C@H](Cc1c[nH]c2ccccc12)NC(=O)[C@H](CCCNC(=N)N)NC(=O)[C@@H](NC(=O)[C@H](CCCNC(=N)N)NC(=O)[C@@H](N)Cc1c[nH]c2ccccc12)C(C)C)[C@@H](C)O)C(=O)N[C@@H](CCCCN)C(N)=O (H-WRVRWKTRWRVK-NH2)
Result: 80.8

Request: Also CC(C)[C@H](NC(=O)[C@H](CCCNC(=N)N)NC(=O)[C@H](Cc1c[nH]c2ccccc12)NC(=O)[C@H](CCCNC(=N)N)NC(=O)[C@@H](NC(=O)[C@H](CCCNC(=N)N)NC(=O)[C@H](Cc1c[nH]c2ccccc12)NC(=O)[C@H](CCCNC(=N)N)NC(=O)[C@@H](NC(=O)[C@H](CCCNC(=N)N)NC(=O)[C@@H](N)Cc1c[nH]c2ccccc12)C(C)C)C(C)C)C(=O)N[C@@H](CCCNC(=N)N)C(N)=O (H-WRVRWRVRWRVR-NH2) , if possible.
Result: 114

Request: And CC[C@H](C)[C@H](NC(=O)[C@H](CCCCN)NC(=O)[C@H](Cc1c[nH]c2ccccc12)NC(=O)[C@H](CCCCN)NC(=O)[C@@H](NC(=O)[C@H](CCCCN)NC(=O)[C@H](Cc1c[nH]c2ccccc12)NC(=O)[C@H](CCCCN)NC(=O)[C@@H](NC(=O)[C@H](CCCCN)NC(=O)[C@@H](N)Cc1c[nH]c2ccccc12)[C@@H](C)CC)[C@@H](C)CC)C(=O)N[C@@H](CCCCN)C(N)=O (H-WKIKWKIKWKIK-NH2) ?
Result: 32

Request: Try this molecule next: CC(C)[C@H](NC(=O)[C@H](CCCCN)NC(=O)[C@H](Cc1c[nH]c2ccccc12)NC(=O)[C@H](CCCCN)NC(=O)[C@@H](NC(=O)[C@H](CCCCN)NC(=O)[C@H](Cc1c[nH]c2ccccc12)NC(=O)[C@H](CCCCN)NC(=O)[C@@H](NC(=O)[C@H](CCCCN)NC(=O)[C@@H](N)Cc1c[nH]c2ccccc12)C(C)C)C(C)C)C(=O)N[C@@H](CCCCN)C(N)=O (H-WKVKWKVKWKVK-NH2)
Result: 144
